# System: MARIMO
# experiment_description: cell viability relative to vehicle control; higher = less cytotoxic;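 further: after 48 h exposure read by CellTiter-Glo luminescence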
# condition_summary: 10 µM; SRSF2 genotype: SRSF2 wt/wt
Counter-ions that a name gives are not always drawn.
The compounds listed here are annotated with their cell viability.
Write down the value, and be sure its unit follows.

Example entries begin here.
> print(dat)
                                   compound  result
1  CC(=O)NC[C@H]1CN(c2ccc(N3CCOCC3)c(F)c2)C(=O)O1 [Linezolid (Zyvox)]   92.5%
2  CC(C)(C(=O)O)c1ccc(C(O)CCCN2CCC(C(O)(c3ccccc3)c3ccccc3)CC2)cc1 (stereo not given) [Fexofenadine HCl]    103%
3  C/C(O)=C(\C#N)C(=O)Nc1ccc(C(F)(F)F)cc1 [Teriflunomide]   98.5%
4  CCCCC(C=O)NC(=O)C(CC(C)C)NC(=O)C(CC(C)C)NC(C)=O (stereo not given)    1.7%

Switching to the query record.
Challenge: Given the compound `CN(C)Cc1cccc(N=C(c2ccccc2)c2c(O)[nH]c3cc(C(=O)N(C)C)ccc23)c1` , what is its reported cell viability?
Response given: 63.4%

###

# System: MARIMO
# experiment_description: cell viability relative to vehicle control; higher = less cytotoxic
# condition_summary: 10 µM; SRSF2 genotype: SRSF2 wt/wt
The compounds listed here are annotated with their cell viability.
// return numeric value only (unit: %, not printed)

Challenge: Given the compound Nc1ccn([C@@H]2CS[C@H](CO)O2)c(=O)n1 [Lamivudine (Epivir)] , what is its reported cell viability?
Response given: 104

###

# Test system: MARIMO
# experiment_description: cell viability relative to vehicle control; higher = less cytotoxic
# condition_summary: 10 µM; SRSF2 genotype: SRSF2 wt/wt
The compounds listed here are annotated with their cell viability.
// return numeric value only (unit: %, not printed)

Challenge: Given the compound COc1ccc(C(=O)O)cc1O [Isovanillic acid] , what is its reported cell viability?
Response given: 97.5

Challenge: Then what about the compound NS(=O)(=O)c1cc2c(cc1Cl)NC(C(Cl)Cl)NS2(=O)=O (centres undefined) [Trichlormethiazide (Achletin)] ?
Response given: 99.7

###

# Test system: K562
# experiment_description: cell viability relative to vehicle control; higher = less cytotoxic
# condition_summary: 10 µM; SRSF2 genotype: SRSF2 P95H/wt
Counter-ions that a name gives are not always drawn.
The compounds listed here are annotated with their cell viability.
// return numeric value only (unit: %, not printed)

Example entries begin here.
compound	cell viability, %
CC(C(=O)O)C(=O)O [Methylmalonate]	102
CCCCCCCCCCCCCCCC(=O)OCC [Ethyl palmitate]	101
Cn1nnc(-c2ccc3c(c2)[nH]c2nc(Cc4ccccc4)nc(NC4CCC(N)CC4)c23)n1 (stereo not drawn)	0.17
COC(=O)c1ccc(O)c(O)c1 [Methyl protocatechuate]	105
CC[C@H]1OC(=O)C[C@@H](O)[C@H](C)[C@@H](O[C@@H]2O[C@H](C)[C@@H](O)[C@H](N(C)C)[C@H]2O)[C@@H](CCN2C[C@H](C)C[C@H](C)C2)C[C@@H](C)C(=O)/C=C/C(C)=C/[C@@H]1CO[C@@H]1O[C@H](C)[C@@H](O)[C@@H](OC)[C@H]1OC [Tilmicosin phosphate]	102
O=C(O)/C=C/c1ccc(Cn2ccnc2)cc1 [Ozagrel HCl]	97.6
COc1cc(C=O)c([N+](=O)[O-])cc1OC	104
CCOc1nc2cccc(C(=O)OCc3oc(=O)oc3C)c2n1Cc1ccc(-c2ccccc2-c2noc(=O)[nH]2)cc1	97.7

Challenge: Given the compound CO[C@@]1(NC(=O)CSC[C@@H](N)C(=O)O)C(=O)N2C(C(=O)O)=C(CSc3nnnn3C)CS[C@@H]21 [Cefminox Sodium] , what is its reported cell viability?
Response given: 103

Challenge: Then what about the compound NN1CC(=O)NC1=O [1-Aminohydantoin Hydrochloride] ?
Response given: 103

Challenge: Then what about the compound `C[C@]12C=CC(=O)C=C1CC[C@H]1[C@@H]3C[C@@H](O)[C@](O)(C(=O)CO)[C@@]3(C)C[C@H](O)[C@@]12F` ?
Response given: 107

Challenge: Then what about the compound `CCCCC[C@H](O)/C=C/[C@H]1[C@H](O)CC(=O)[C@@H]1C/C=C\CCCC(=O)O` ?
Response given: 99

Challenge: Then what about the compound `O=C1C[C@@H]2[C@@H](CO)[C@H](O)C[C@@H]2O1` ?
Response given: 110

Challenge: Then what about the compound C=C(C)C1CC=C(C=NO)CC1 (stereo not drawn) ?
Response given: 100
